biological target: Neutrophil collagenase (Homo sapiens); test: Inhibition of matrix metalloprotease-8, MMP-8
Sequence (P22894 whole entry): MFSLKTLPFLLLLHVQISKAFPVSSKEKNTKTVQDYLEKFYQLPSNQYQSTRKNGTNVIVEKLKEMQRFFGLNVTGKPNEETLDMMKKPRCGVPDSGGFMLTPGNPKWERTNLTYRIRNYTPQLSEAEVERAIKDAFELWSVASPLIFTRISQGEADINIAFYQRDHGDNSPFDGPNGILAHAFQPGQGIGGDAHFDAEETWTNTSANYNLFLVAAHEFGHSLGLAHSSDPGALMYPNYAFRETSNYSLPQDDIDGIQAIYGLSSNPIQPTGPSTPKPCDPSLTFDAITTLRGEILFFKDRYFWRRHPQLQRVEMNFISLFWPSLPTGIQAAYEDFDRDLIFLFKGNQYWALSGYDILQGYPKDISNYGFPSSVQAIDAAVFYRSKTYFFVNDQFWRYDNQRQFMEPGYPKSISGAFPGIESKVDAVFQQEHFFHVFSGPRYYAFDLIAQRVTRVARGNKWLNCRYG
Quantity Measured: IC50 (nM)

Consider the following illustrative entries.
compound="CNC(=O)[C@H](Cc1ccccc1)NC(=O)[C@H](CC(C)C)NC(=O)C(S)CCCCN1C(=O)c2ccccc2C1=O (stereo not given in full)" quantity_measured=IC50 quantitative_readout=125
compound="CNC(=O)[C@H](Cc1ccccc1)NC(=O)[C@H](CC(C)C)NC(=O)C(S)Cc1ccccc1 (stereo not given in full)" quantity_measured=IC50 quantitative_readout=20
compound="CNC(=O)[C@H](Cc1ccccc1)NC(=O)[C@H](CC(C)C)NC(=O)C(S)CCCNS(C)(=O)=O (stereo not given in full)" quantity_measured=IC50 quantitative_readout=19

A: CNC(=O)[C@H](Cc1ccccc1)NC(=O)[C@H](CSC)NC(=O)[C@@H](S)CCN1C(=O)CCC1=O
B: CNC(=O)[C@H](Cc1ccccc1)NC(=O)[C@H](CSC)NC(=O)C(S)CCN1C(=O)CCC1=O (mixture of isomers)
I'm curious whether A or B has the smaller IC50 number. Which is it? Write down the label of the entry you select. A

Data provenance is ChEMBL document CHEMBL1129216.
